Cited source for all entries: patent US20140079716A1

- system: T1, soluble recombinant human lymphotoxin α1β2 (human, UniProt P01374 35-205, limits assumed)
- T1 sequence 1: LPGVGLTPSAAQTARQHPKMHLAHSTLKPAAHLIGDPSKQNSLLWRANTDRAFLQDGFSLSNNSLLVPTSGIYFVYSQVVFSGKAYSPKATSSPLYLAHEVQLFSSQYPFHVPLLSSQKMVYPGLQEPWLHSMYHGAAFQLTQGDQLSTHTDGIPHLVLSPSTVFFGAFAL
- T1 sequence 2: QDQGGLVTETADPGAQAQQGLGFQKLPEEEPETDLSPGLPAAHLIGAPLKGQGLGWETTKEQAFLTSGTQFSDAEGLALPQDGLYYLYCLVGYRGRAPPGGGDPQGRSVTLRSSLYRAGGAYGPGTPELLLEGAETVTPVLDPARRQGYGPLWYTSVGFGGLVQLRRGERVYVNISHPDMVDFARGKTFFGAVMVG
- procedure-text: cell-based or functional assay
assay-readout: IC50 nM, inhibition of IL-8 release (nM)

binder | assay-readout | unit-abbreviation | measured-value
A1D5 (antibody, V domains shown, Murine monoclonal antibody, kappa light chain; also called mAb A1D5) VH: EVQLQQSGPELVKPGASVKISCKASGYSFTGYFMNWMRQSHGKSLEWIGRINPYNGDSFYNQKFKDKATLTVDKSSTTAHMELLSLTSEDSAVYYCGRGYDAMDYWGQGTSVTVSS VL: DIQMTQTTSSLSASLGDRVTISCRASQDISNFLTWYQQKPDGTVKLLIYYTSKLHSGVPSRFSGSGSGTDYSLTISNLEPGDIATYYCQQVSKFPWTFGGGAKLEIK | IC50 nM, inhibition of IL-8 release | nM | 2.5
LT107 (P5C4.1) (antibody, V domains shown, Murine monoclonal antibody, kappa light chain; also called mAb LT107) VH: QVQLKQSGPGLVQPSQNLSITCTVSGFSLTNYGIHWIRQPPGKGLEWLGVIWSGGSTDHNAAFISRLSISKDNSKSQVFFTMNSLEVDDTAIYYCARNRAYYRYEGGMDYWGQGTSVTVSS VL: DIKMTQSPSSMYASLGERVTITCKASQDINTYLNWFQQKPGKSPMTLIYRADRLLDGVPSRFSGSGSGQDYSLTISSLEDEDMGIYYCQQYDDFPLTFGAGTKLELK | IC50 nM, inhibition of IL-8 release | nM | 0.53
LT101 (P1G4.4) / LT103 (P1G9.1) (antibody, V domains shown, Murine monoclonal antibody, kappa light chain; also called LT101/LT103) VH: QVQLQQSGPELVKPGASVQISCKASGYVFSSSWMNWVKQRPGRGLEWIGRIYPGDGDTDYTGKFKGKATLTADKSSNTAYMQLSSLTSVDSAVYFCASGYFDFWGQGTPLTVSS VL: DITMTQSPSSMYASLGERVTITCKASQDMNNYLRWFQQKPGKSPQTLIFRANRLVDGVPSRFSGSGSGQDYSLTISSLEFEDMGIYYCLQHDKFPPTFGGGTKLEIK | IC50 nM, inhibition of IL-8 release | nM | 1.11
